# Target desc: CDK2/Cyclin A2 (Homo sapiens, UniProt P24941)
# Test protocol: Inhibition of human full length N-terminal GST-fused CDK2 (M1 to L298 residues)/human full length Cyclin-A2 (M1 to L432 residues) expressed in Sf9 cells using histone H1 as substrate measured after 1 hr by ADP-glo luminescence assay
Measure: IC50

Consider the reported IC50 for these compounds:
Smiles data	IC50
COc1cc(-c2nc3ccccc3c(=O)[nH]2)ccc1OS(C)(=O)=O	> 100 µM
COc1ccc(-c2nc3ccccc3c(=O)[nH]2)cc1OCC(=O)NC1CCCCC1	> 100 µM
O=C(COc1ccc(-c2nc3ccccc3c(=O)[nH]2)cc1)Nc1cccc(Cl)c1	> 100 µM

Would you kindly look at the next entry?
QUERY: Which IC50 value is on record for `COc1ccccc1NC(=O)COc1ccc(-c2nc3ccccc3c(=O)[nH]2)cc1OC` ?
RESULT: > 50 µM

----------
# Target desc: CDK6/cyclin D1 (Homo sapiens, UniProt Q00534)
# Sequence (P24385 whole entry): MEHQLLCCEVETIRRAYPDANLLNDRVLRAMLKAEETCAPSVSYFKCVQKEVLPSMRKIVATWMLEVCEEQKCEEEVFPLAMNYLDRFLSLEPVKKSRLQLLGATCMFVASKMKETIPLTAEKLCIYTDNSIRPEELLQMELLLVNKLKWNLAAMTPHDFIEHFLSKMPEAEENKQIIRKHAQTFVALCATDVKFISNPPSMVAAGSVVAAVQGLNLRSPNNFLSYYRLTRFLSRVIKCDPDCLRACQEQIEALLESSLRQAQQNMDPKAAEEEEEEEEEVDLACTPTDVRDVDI
# Sequence (Q00534 whole entry): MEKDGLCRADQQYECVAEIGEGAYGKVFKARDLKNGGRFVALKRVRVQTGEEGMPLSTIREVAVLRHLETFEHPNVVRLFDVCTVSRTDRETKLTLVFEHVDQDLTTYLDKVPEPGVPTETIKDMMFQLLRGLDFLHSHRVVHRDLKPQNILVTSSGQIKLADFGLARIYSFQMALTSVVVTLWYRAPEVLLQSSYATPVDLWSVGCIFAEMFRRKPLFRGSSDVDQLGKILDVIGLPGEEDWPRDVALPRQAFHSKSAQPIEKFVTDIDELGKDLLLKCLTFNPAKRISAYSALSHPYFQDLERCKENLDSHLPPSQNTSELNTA
# Test protocol: Inhibition of CDK6/cyclin D1 (unknown origin) using RBER-CHKtide as substrate measured after 1 hr by ADP-glo luminescence assay
Measure: IC50

Smiles data	Result
COc1ccc(-c2nc3ccccc3c(=O)[nH]2)cc1OCC(=O)NC1CCCCC1	> 100 µM
COc1ccccc1NC(=O)COc1ccc(-c2nc3ccccc3c(=O)[nH]2)cc1OC	> 100 µM

Would you kindly look at the next entry?
QUERY: Which IC50 value is on record for `O=C(COc1ccc(-c2nc3ccccc3c(=O)[nH]2)cc1)Nc1cccc(Cl)c1` ?
RESULT: > 100 µM

----------
# Target desc: Cyclin-dependent kinase 4/cyclin D1 (Homo sapiens) (UniProt P11802+P24385)
# Test protocol: Inhibition of recombinant human N-terminal GST-tagged CDK4 (S4 to E303 residues)/Cyclin D1 (Q4 to I295 residues) expressed in sf9 cells at 10 uM using RBCTF as substrate measured after 1 hr by ADP-glo luminescence assay relative to control
Below: a set of entries, each annotated with reported inhibition.
Quote the value and follow it with the unit of measurement.

Smiles data	Target desc	inhibition
COc1ccc(-c2nc3ccccc3c(=O)[nH]2)cc1OCC(=O)Nc1ccc([N+](=O)[O-])cc1	Cyclin-dependent kinase 4/cyclin D1 (Homo sapiens) (UniProt P11802+P24385)	1%
COc1ccc(-c2nc3ccccc3c(=O)[nH]2)cc1OCC(=O)Nc1ccccc1Cl	Cyclin-dependent kinase 4/cyclin D1 (Homo sapiens) (UniProt P11802+P24385)	41%
COc1cccc(NC(=O)COc2cc(-c3nc4ccccc4c(=O)[nH]3)ccc2OC)c1	Cyclin-dependent kinase 4/cyclin D1 (Homo sapiens) (UniProt P11802+P24385)	5%
CCOc1ccc(NC(=O)COc2cc(-c3nc4ccccc4c(=O)[nH]3)ccc2OC)cc1	Cyclin-dependent kinase 4/cyclin D1 (Homo sapiens) (UniProt P11802+P24385)	3%

Would you kindly look at the next entry?
QUERY: Give Cyclin-dependent kinase 4/cyclin D1 (Homo sapiens) (UniProt P11802+P24385) inhibition for `CCCCNC(=O)COc1ccc(-c2nc3ccccc3c(=O)[nH]2)cc1OC`
RESULT: 48%

----------
# Target desc: CDK9/cyclin T1 (Homo sapiens, UniProt P50750)
# Sequence (O60563 whole entry, the tested form may be a part): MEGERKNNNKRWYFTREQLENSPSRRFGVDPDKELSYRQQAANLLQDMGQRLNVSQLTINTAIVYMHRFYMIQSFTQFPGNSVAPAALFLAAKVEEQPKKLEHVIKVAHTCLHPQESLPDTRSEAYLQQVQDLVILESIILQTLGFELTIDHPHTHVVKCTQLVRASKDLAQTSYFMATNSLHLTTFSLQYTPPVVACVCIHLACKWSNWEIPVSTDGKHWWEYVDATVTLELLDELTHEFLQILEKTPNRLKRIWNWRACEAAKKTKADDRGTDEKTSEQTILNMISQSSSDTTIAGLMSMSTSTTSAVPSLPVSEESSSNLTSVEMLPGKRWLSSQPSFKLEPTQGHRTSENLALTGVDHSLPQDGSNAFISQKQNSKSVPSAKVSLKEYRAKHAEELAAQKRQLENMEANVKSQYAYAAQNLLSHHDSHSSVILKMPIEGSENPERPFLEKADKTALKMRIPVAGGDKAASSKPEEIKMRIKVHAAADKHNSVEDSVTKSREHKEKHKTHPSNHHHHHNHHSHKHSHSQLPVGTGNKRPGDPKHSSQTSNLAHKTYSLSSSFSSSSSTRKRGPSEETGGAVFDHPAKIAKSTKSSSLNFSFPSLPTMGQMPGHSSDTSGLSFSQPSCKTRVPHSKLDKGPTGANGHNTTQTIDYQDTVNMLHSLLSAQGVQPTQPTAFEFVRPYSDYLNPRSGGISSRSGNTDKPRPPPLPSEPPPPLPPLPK
# Sequence (P50750 whole entry, the tested form may be a part): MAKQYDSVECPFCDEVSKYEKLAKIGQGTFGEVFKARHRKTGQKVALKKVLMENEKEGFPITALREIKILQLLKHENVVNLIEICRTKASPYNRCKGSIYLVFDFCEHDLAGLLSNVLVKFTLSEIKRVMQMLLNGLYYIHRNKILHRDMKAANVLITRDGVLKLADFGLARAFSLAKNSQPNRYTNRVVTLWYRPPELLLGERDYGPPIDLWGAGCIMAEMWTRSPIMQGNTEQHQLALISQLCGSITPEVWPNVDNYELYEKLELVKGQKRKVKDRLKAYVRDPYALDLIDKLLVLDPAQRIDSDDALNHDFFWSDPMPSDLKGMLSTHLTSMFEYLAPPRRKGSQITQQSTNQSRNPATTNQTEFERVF
# Test protocol: Inhibition of N-terminal GST-HIS6 fusion protein tagged human full length CDK9 (M1 to F372 residues)/N-terminal HIS6-fused human Cyclin-T1 (M1 to K726 residues) expressed in Sf9 cells using RBCTF as substrate measured after 1 hr by ADP-glo luminescence assay
pIC50: −log10 of the molar value.
Below: a set of entries, each annotated with reported pIC50.

Consider the reported pIC50 for these compounds:
Smiles data	Measure	Result
O=C(COc1ccc(-c2nc3ccccc3c(=O)[nH]2)cc1)Nc1cccc(Cl)c1	pIC50	< 4.00
COc1ccc(-c2nc3ccccc3c(=O)[nH]2)cc1OCC(=O)NC1CCCCC1	pIC50	< 4.30

QUERY: Give CDK9/cyclin T1 (Homo sapiens, UniProt P50750) pIC50 for `COc1ccccc1NC(=O)COc1ccc(-c2nc3ccccc3c(=O)[nH]2)cc1OC`
RESULT: < 4.00
